Taken from PubChem BioAssay (NCI).

- runDescription: NCI Yeast Anticancer Drug Screen. Data for the mlh1 rad18 strain (AID 175)
- conditionNotes: S. cerevisiae mlh1 rad18 strain growth inhibition; at 5.0 µM (retest, dose inferred, filed as 0.5)
The panel holds about 79,000 compounds, 15% with a hit somewhere; the sample as a whole holds those more often. Activity calls are given as the source filed them. Rule as the data show it: active = growth inhibition above about 70%; inactive = the rest.
Labels: active, inactive

# compound, qualitativeLabel
measured = [
    ("O=C(CC1(O)C(=O)Nc2c(Cl)cc(Cl)cc21)c1ccc(Br)cc1 (stereo not given)", "inactive"),
    ("O=C1NC2(C=Cc3c(ccc4ccccc34)O2)Oc2ccccc21 (stereo not given)", "inactive"),
    ("O=C1OCc2cccc3cccc1c23", "inactive"),
    ("Cc1cc(N/N=C/c2cccc3ccccc23)c2cc3c(cc2n1)OCO3", "inactive"),
    ("Cc1c2ccccc2c(CSC(=N)N)c2ccccc12", "inactive"),
    ("Nc1ccc2c(SCCSc3c4ccccc4nc4cc(N)ccc34)c3ccccc3nc2c1", "inactive"),
    ("CC(C(=O)O)c1c(-c2ccccc2)ccc2ccccc12 (stereo not given)", "inactive"),
    ("OC(CCl)COc1c(Cl)c(Cl)c(Cl)c(Cl)c1Cl (stereo not given)", "inactive"),
    ("Cc1cc(N2C(=O)CSC2=S)ccc1Cl", "inactive"),
    ("CCC(c1ccc(O)cc1)C(CC)c1ccc(O)c(O)c1 (stereo not given)", "inactive"),
    ("Cn1cc(/C=C/[N+](=O)[O-])c2ccc(OCc3ccccc3)cc21", "inactive"),
    ("CSc1ccc2c(c1)S[S@@](=O)N2", "inactive"),
    ("COc1ccc(NC(=O)OC(C)C)c(OC)c1", "inactive"),
    ("OCc1cccc2c1Oc1ccccc1S2", "inactive"),
    ("O=C(CNC(=O)c1ccccc1)Oc1c(Cl)c(Cl)c(Cl)c(Cl)c1Cl", "inactive"),
    ("COc1cc(/C=C(\\C#N)c2ccc([N+](=O)[O-])cc2)ccc1O", "inactive"),
    ("O=C(C[n+]1ccc2ccccc2c1)c1ccc(-c2ccccc2)cc1", "inactive"),
    ("Oc1c(I)cc(Cl)c2cccnc12", "active"),
    ("CCOP(=O)(OCC)/C(=C\\NC(=S)N=Nc1c(O)[nH]c2ccccc12)C(=O)OC", "inactive"),
    ("CCN(CC)Cc1c(-c2ccccc2)oc(-c2ccccc2)c1CN(CC)CC", "inactive"),
    ("N#CSCc1ccc(CSC#N)c(Cl)c1", "inactive"),
    ("Oc1c(Cl)cc(Br)cc1Cl", "inactive"),
    ("CCOP(=O)(CCCOc1cc(Cl)c(Cl)cc1Cl)OCC", "inactive"),
    ("FC(F)(F)c1[nH]nc(-c2cc3ccccc3o2)c1N=NN1CCOCC1", "active"),
    ("Clc1ccc2nc3c(c(N4CCOCC4)c2c1)CCCC3", "active"),
]
